tested on: 422866-222-R5-J1-PDC complex spheroids viability; assay: Anticancer human tumor 422866-222-R5-J1-PDC patient-derived pancreatic adenocarcinoma cell line growth inhibition [RAS]; details: second compound 0.00316 µM; first compound 0.01 µM; hits give low values
viability, T/C strictly under 30% means YES; at 30% or over means NO.

Please review the following examples before continuing.
| molecule | class |
| --- | --- |
| Nc1ccn(C2OC(CO)C(O)C2(F)F)c(=O)n1 (stereo not given) + C=CC(=O)N1CCN(c2nc(OCC3CCCN3C)nc3c(F)c(-c4nc(N)cc(C)c4C(F)(F)F)c(Cl)cc23)C(C)C1 | YES |
| O=C(c1ccc(F)c(F)c1Nc1ccc(I)cc1F)N1CC(O)([C@@H]2CCCCN2)C1 + C=CC(=O)N1CCN(c2nc(OCC3CCCN3C)nc3c(F)c(-c4nc(N)cc(C)c4C(F)(F)F)c(Cl)cc23)C(C)C1 | YES |
| CC(C)n1nc(-c2ccc3oc(N)nc3c2)c2c(N)ncnc21 + C=CC(=O)N1CCN(c2nc(OCC3CCCN3C)nc3c(F)c(-c4nc(N)cc(C)c4C(F)(F)F)c(Cl)cc23)C(C)C1 | YES |

[Q] A record lists CCN1CCN(Cc2ccc(Nc3ncc(F)c(-c4cc(F)c5nc(C)n(C(C)C)c5c4)n3)nc2)CC1 + C=CC(=O)N1CCN(c2nc(OCC3CCCN3C)nc3c(F)c(-c4nc(N)cc(C)c4C(F)(F)F)c(Cl)cc23)C(C)C1 . Is its viability, T/C below 30%?
[A] NO

[Q] A record lists C=CC(=O)Nc1cc(Nc2nccc(-c3cn(C)c4ccccc34)n2)c(OC)cc1N(C)CCN(C)C + C=CC(=O)N1CCN(c2nc(OCC3CCCN3C)nc3c(F)c(-c4nc(N)cc(C)c4C(F)(F)F)c(Cl)cc23)C(C)C1 . Is its viability, T/C below 30%?
[A] YES

----------
Below, each entry is listed alongside its reported viability, T/C.
test system: 422866-222-R5-J1-PDC complex spheroids viability; assay: Anticancer human tumor 422866-222-R5-J1-PDC cell line growth inhibition [RAS]; settings: second compound 0.03 µM; first compound 0.01 µM; hits give low values;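 further: spheroids exposed to compounds for 7 days; 100% = DMSO vehicle control viability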
Respond with the bare value in %.

[Q] Please look up its viability, T/C: CCN1CCN(Cc2ccc(Nc3ncc(F)c(-c4cc(F)c5nc(C)n(C(C)C)c5c4)n3)nc2)CC1 + CCn1c(-c2cc(N3CCN(C)CC3)cnc2C(C)OC)c2c3cc(ccc31)-c1csc(n1)CC(NC(=O)C1CC1C)C(=O)N1CCCC(N1)C(=O)OCC(C)(C)C2
[A] 22.9

[Q] Please look up its viability, T/C: Nc1ccn(C2OC(CO)C(O)C2(F)F)c(=O)n1 (centres undefined) + CCn1c(-c2cc(N3CCN(C)CC3)cnc2C(C)OC)c2c3cc(ccc31)-c1csc(n1)CC(NC(=O)C1CC1C)C(=O)N1CCCC(N1)C(=O)OCC(C)(C)C2
[A] 20.1

[Q] Please look up its viability, T/C: C=CC(=O)Nc1cc(Nc2nccc(-c3cn(C)c4ccccc34)n2)c(OC)cc1N(C)CCN(C)C + CCn1c(-c2cccnc2C(C)OC)c2c3cc(ccc31)N1CCOC(CC(NC(=O)C(C(C)C)N(C)C(=O)C3(F)CCN(C(=O)C#CC(C)(C)N(C)C)CC3)C(=O)N3CCCC(N3)C(=O)OCC(C)(C)C2)C1
[A] 19.8

[Q] Please look up its viability, T/C: O=C(c1ccc(F)c(F)c1Nc1ccc(I)cc1F)N1CC(O)([C@@H]2CCCCN2)C1 + CCn1c(-c2cccnc2C(C)OC)c2c3cc(ccc31)N1CCOC(CC(NC(=O)C(C(C)C)N(C)C(=O)C3(F)CCN(C(=O)C#CC(C)(C)N(C)C)CC3)C(=O)N3CCCC(N3)C(=O)OCC(C)(C)C2)C1
[A] 15.5

----------
test system: 422866-222-R5-J1-PDC complex spheroids viability; assay: Anticancer human tumor 422866-222-R5-J1-PDC cell line growth inhibition [RAS]; conditions: second compound 0.003 µM; first compound 1 µM; hits give low values;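 further: spheroids exposed to compounds for 7 days; 100% = DMSO vehicle control viability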
Below, each entry is listed alongside its reported viability, T/C.
Respond with the bare value in %.

Worked examples, 3 compounds total:
| compound | endpoint.unit | viability, T/C |
| --- | --- | --- |
| Nc1ccn(C2OC(CO)C(O)C2(F)F)c(=O)n1 (centres undefined) + CCn1c(-c2cc(N3CCN(C)CC3)cnc2C(C)OC)c2c3cc(ccc31)-c1csc(n1)CC(NC(=O)C1CC1C)C(=O)N1CCCC(N1)C(=O)OCC(C)(C)C2 | % | 17.4 |
| C=CC(=O)N1CCN(c2nc(OCC3CCCN3C)nc3c(F)c(-c4nc(N)cc(C)c4C(F)(F)F)c(Cl)cc23)C(C)C1 (centres undefined) + CCn1c(-c2cc(N3CCN(C)CC3)cnc2C(C)OC)c2c3cc(ccc31)-c1csc(n1)CC(NC(=O)C1CC1C)C(=O)N1CCCC(N1)C(=O)OCC(C)(C)C2 | % | 20.6 |
| CC(=O)OC12COC1CC(O)C1(C)C(=O)C(O)C3=C(C)C(OC(=O)C(O)C(NC(=O)OC(C)(C)C)c4ccccc4)CC(O)(C(OC(=O)c4ccccc4)C21)C3(C)C (centres undefined) + CCn1c(-c2cccnc2C(C)OC)c2c3cc(ccc31)N1CCOC(CC(NC(=O)C(C(C)C)N(C)C(=O)C3(F)CCN(C(=O)C#CC(C)(C)N(C)C)CC3)C(=O)N3CCCC(N3)C(=O)OCC(C)(C)C2)C1 | % | 21.1 |

[Q] Item: CC(Nc1ccc2c(c1)OCCn1cc(N3C(=O)OCC3C(F)F)nc1-2)C(N)=O (centres undefined) + CCn1c(-c2cc(N3CCN(C)CC3)cnc2C(C)OC)c2c3cc(ccc31)-c1csc(n1)CC(NC(=O)C1CC1C)C(=O)N1CCCC(N1)C(=O)OCC(C)(C)C2 Test system: 422866-222-R5-J1-PDC complex spheroids viability Read-out: viability, T/C Value: ?
[A] 8.16

----------
test system: 422866-222-R5-J1-PDC complex spheroids viability; assay: Anticancer human tumor 422866-222-R5-J1-PDC cell line growth inhibition [RAS]; details: second compound 0.0316 µM; first compound 0.03 µM; hits give low values;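 further: spheroids exposed to compounds for 7 days; 100% = DMSO vehicle control viability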
Below, each entry is listed alongside its reported viability, T/C.
Respond with the bare value in %.

Worked examples, 2 compounds total:
| compound | measurement.label | reported.result |
| --- | --- | --- |
| CC1(C)CCC(Nc2ncc(C(F)(F)F)c(-c3c[nH]c4c(P(C)(C)=O)c(C#N)ccc34)n2)CN1 (centres undefined) + C#Cc1c(F)ccc2cc(O)cc(-c3ncc4c(N5CC6CCC(C5)N6)nc(OCC56CCCN5CC(F)C6)nc4c3F)c12 | viability, T/C | 55.6 |
| CCc1c2c(nc3ccc(O)cc13)-c1cc3c(c(=O)n1C2)COC(=O)[C@]3(O)CC + C=CC(=O)N1CCN(c2nc(OCC3CCCN3C)nc3c(F)c(-c4nc(N)cc(C)c4C(F)(F)F)c(Cl)cc23)C(C)C1 | viability, T/C | 14.8 |

[Q] Please look up its viability, T/C: CCc1c2c(nc3ccc(O)cc13)-c1cc3c(c(=O)n1C2)COC(=O)[C@]3(O)CC + C#Cc1c(F)ccc2cc(O)cc(-c3ncc4c(N5CC6CCC(C5)N6)nc(OCC56CCCN5CC(F)C6)nc4c3F)c12
[A] 41.9

[Q] Please look up its viability, T/C: CC1(C)CCC(Nc2ncc(C(F)(F)F)c(-c3c[nH]c4c(P(C)(C)=O)c(C#N)ccc34)n2)CN1 (centres undefined) + C=CC(=O)N1CCN(c2nc(OCC3CCCN3C)nc3c(F)c(-c4nc(N)cc(C)c4C(F)(F)F)c(Cl)cc23)C(C)C1
[A] 23.3

----------
test system: 422866-222-R5-J1-PDC complex spheroids viability; experiment: Anticancer human tumor 422866-222-R5-J1-PDC cell line growth inhibition [RAS]; conditions: second compound 0.003 µM; first compound 0.01 µM; hits give low values;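 further: spheroids exposed to compounds for 7 days; 100% = DMSO vehicle control viability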
Below, each entry is listed alongside its reported viability, T/C.
Respond with the bare value in %.

| molecule | target.entity | reported.result |
| --- | --- | --- |
| C=CC(=O)Nc1cc(Nc2nccc(-c3cn(C)c4ccccc34)n2)c(OC)cc1N(C)CCN(C)C + CCn1c(-c2cccnc2C(C)OC)c2c3cc(ccc31)N1CCOC(CC(NC(=O)C(C(C)C)N(C)C(=O)C3(F)CCN(C(=O)C#CC(C)(C)N(C)C)CC3)C(=O)N3CCCC(N3)C(=O)OCC(C)(C)C2)C1 | 422866-222-R5-J1-PDC complex spheroids viability | 19.2 |

For the next question, use this molecule.
[Q] Please look up its viability, T/C: C=CC(=O)N1CCN(c2nc(OCC3CCCN3C)nc3c(F)c(-c4nc(N)cc(C)c4C(F)(F)F)c(Cl)cc23)C(C)C1 (configuration not stated) + CCn1c(-c2cc(N3CCN(C)CC3)cnc2C(C)OC)c2c3cc(ccc31)-c1csc(n1)CC(NC(=O)C1CC1C)C(=O)N1CCCC(N1)C(=O)OCC(C)(C)C2
[A] 15

Data provenance: PubChem BioAssay AID2060901
